B1: POU domain, class 5, transcription factor 1, residues 134 to 212; numbered along this chain, Q01860 (parent)
chain: EESQDIKALQKELEQFAKLLKQKRITLGYTQADVGLTLGVLFGKVFSQTTICRFEALQLSFKNMCKLRPLLQKWVEEAD

Variants of: B1
Assay: abundance fitness (aPCA) (normalised: wild type 0, dead -1); higher = more abundant; growth selection in yeast, the domain comes from the species named
Settings: Homo sapiens
Decision: abundance fitness >= -0.06 yields met, all other cases yield not met.

**Query** Entry `E14C` : is its abundance fitness no less than -0.06?
**Result** not met

**Query** Tell me whether abundance fitness is at least -0.06 here: `L41Q`
**Result** met

**Query** State whether the measured abundance fitness reaches -0.06, counting equality as reaching it, for `G43S`
**Result** not met

**Query** Check this variant for abundance fitness at or above -0.06: `E76K`
**Result** not met

**Query** Determine whether measured abundance fitness meets or exceeds -0.06 for `K73F`
**Result** not met

**Query** Kindly determine if abundance fitness recorded for `A56Q` is above or exactly -0.06.
**Result** met

**Query** Check the entry `K7S` : does abundance fitness equal or exceed -0.06?
**Result** met

**Query** Determine whether this variant has abundance fitness no lower than -0.06: `D5P`
**Result** met

**Query** Dear colleague, could you confirm whether `C65D` has abundance fitness at or above -0.06?
**Result** met

**Query** Please indicate if the recorded abundance fitness for `Q15R` meets or exceeds -0.06.
**Result** not met
